Hello, the source for this data is ChEMBL document CHEMBL2417391, in case you need it.

Would you kindly list IC50 for each of these compounds?
- Tested on: A-375
- method: Cytotoxicity against human A375 cells after 48 hrs by MTT assay
- Format: functional, cell-based
- experimental_conditions: A-375, 48 h
Your answer is read as µM, so omit the unit and give the number.

CC(C)=CC(=O)Nc1cc2cc(O)c3nccc4c5ccccc5n1c2c34 yielded IC50 of 6

CC(C)=CC(=O)NCCc1c2c3c(ccnc3c3ncsc13)-c1ccccc1N2 yielded IC50 of 11.8

O=C1c2cccnc2-c2nccc3c2c1nc1ccccc13 [ASCIDIDEMIN] yielded IC50 of 0.38
